Tested system: IRAK1 (Homo sapiens, UniProt P51617)
Construct: purchased RBC (Reaction Biology) HotSpot assay
Sequence (P51617 whole entry): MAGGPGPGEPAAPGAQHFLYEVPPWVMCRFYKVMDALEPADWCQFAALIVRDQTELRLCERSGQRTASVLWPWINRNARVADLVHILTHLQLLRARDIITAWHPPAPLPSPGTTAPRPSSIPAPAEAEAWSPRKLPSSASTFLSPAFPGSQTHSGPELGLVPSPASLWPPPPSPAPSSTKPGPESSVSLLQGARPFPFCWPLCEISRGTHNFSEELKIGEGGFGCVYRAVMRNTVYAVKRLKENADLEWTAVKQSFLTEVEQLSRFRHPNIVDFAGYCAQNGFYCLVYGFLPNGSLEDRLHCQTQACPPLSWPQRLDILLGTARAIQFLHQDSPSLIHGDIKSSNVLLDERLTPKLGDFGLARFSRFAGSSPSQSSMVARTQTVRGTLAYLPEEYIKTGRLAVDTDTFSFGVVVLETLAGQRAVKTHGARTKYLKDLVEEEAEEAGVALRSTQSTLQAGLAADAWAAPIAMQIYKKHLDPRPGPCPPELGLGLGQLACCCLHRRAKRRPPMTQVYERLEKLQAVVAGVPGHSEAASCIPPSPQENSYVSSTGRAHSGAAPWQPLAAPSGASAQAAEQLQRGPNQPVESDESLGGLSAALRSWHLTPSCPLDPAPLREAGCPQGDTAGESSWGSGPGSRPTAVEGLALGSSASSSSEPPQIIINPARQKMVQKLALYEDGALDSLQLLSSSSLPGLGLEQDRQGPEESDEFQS
Assay notes: RBC HotSpot Kinase Assay, IRAK1
Type: biochemical
Experimental setup: HotSpot functional assay, isolated kinase enzyme, 33P-ATP
pIC50: −log10 of the molar value.
Think of 6 as a floor: if pIC50 stands on it or above, it is Satisfied; beneath it, Not satisfied.

Q) Form field: pIC50 at least 6? Entry: COc1cc2ncc(-c3nc(N[C@@H]4CCCNC4)ccc3F)n2nc1C(C)(C)O [Compound 3a]
A) Satisfied

Q) And the next one, COc1cc2ncc(-c3nc(N[C@H]4CNC[C@@H]4F)c(F)cc3F)n2nc1C1COC1 [Compound 71a] ?
A) Satisfied

Q) And the next one, COc1cc2ncc(-c3nc(N[C@@H]4CCCNC4)ccc3C#N)n2nc1C1CC1 [Compound 30a] ?
A) Not satisfied

Q) And the next one, COc1cc2ncc(-c3nc(N[C@@H]4CCCNC4)ccc3F)n2nc1C1CC1 [Compound 44a] ?
A) Satisfied

Q) And the next one, COc1cc2ncc(-c3nc(N[C@H]4CNCC[C@@H]4F)c(F)cc3F)n2nc1C(C)(O)C(F)(F)F (single isomer, unassigned) [Compound 77a] ?
A) Satisfied

Q) And the next one, COc1cc2ncc(-c3nc(N[C@H]4CNCC[C@@H]4F)c(F)cc3F)n2nc1N1CCCC1=O [Compound 22a] ?
A) Satisfied

Q) And the next one, COc1cc2ncc(-c3nc(N[C@@H]4CCCNC4)c(F)cc3F)n2nc1C1CCCCC1 [Compound 20a] ?
A) Satisfied

Q) And the next one, COc1cc2ncc(-c3ccc(C)c(N[C@@H]4CCCNC4)n3)n2nc1C1CC1 [Compound 41a] ?
A) Not satisfied

Q) And the next one, COc1cc2ncc(-c3nc(N[C@H]4CNC[C@@H]4F)c(F)cc3F)n2nc1C1CCCCC1 [Compound 19a] ?
A) Satisfied

Q) And the next one, COc1cc2ncc(-c3nc(N[C@@H]4CCCNC4)ccc3C)n2nc1C1CC1 [Compound 40a] ?
A) Not satisfied

Q) And the next one, COc1cc2ncc(-c3nc(N[C@@H]4CCCNC4)c(F)cc3F)n2nc1C1CC(C)(C)C1 [Compound 7a] ?
A) Satisfied

Q) And the next one, COc1cc2ncc(-c3nc(N[C@@H]4CCCNC4)c(F)cc3F)n2nc1N1CCCC1=O [Compound 23a] ?
A) Satisfied

Q) And the next one, COc1cc2ncc(-c3nc(N[C@H]4CNCC[C@@H]4F)c(F)cc3F)n2nc1C1CCCCC1 [Compound 21a] ?
A) Satisfied

Q) And the next one, COc1cc2ncc(-c3nc(N[C@H]4CNC[C@@H]4F)ccc3F)n2nc1C(C)(C)O [Compound 2a] ?
A) Satisfied

Q) And the next one, COc1cc2ncc(-c3nc(N[C@H]4CNCC[C@@H]4F)c(F)cc3F)n2nc1C1CCCC1 [Compound 18a] ?
A) Satisfied

Q) And the next one, COc1cc2ncc(-c3ccc(C)c(N[C@H]4CNC[C@@H]4F)n3)n2nc1C1CC1 [Compound 42a] ?
A) Not satisfied

Q) And the next one, COc1cc2ncc(-c3cc(C)cc(N[C@H]4CNCC[C@@H]4F)n3)n2nc1C1CC1 [Compound 52a] ?
A) Not satisfied

Q) And the next one, COc1cc2ncc(-c3cccc(N[C@H]4CNC[C@@H]4F)n3)n2nc1N1CCCC1=O [Compound 25a] ?
A) Satisfied

Q) And the next one, COc1cc2ncc(-c3ccc(F)c(N[C@@H]4CCCNC4)n3)n2nc1C(C)(C)O [Compound 6a] ?
A) Not satisfied

Q) And the next one, Fc1cc(F)c(-c2cnc3cc(OCC(F)F)cnn23)nc1N[C@@H]1CCCNC1 [Compound 83a] ?
A) Not satisfied

Q) And the next one, COc1cc2ncc(-c3cc(C4CC4)cc(N[C@@H]4CCCNC4)n3)n2nc1C1CC1 [Compound 58a] ?
A) Not satisfied

Q) And the next one, COc1cc2ncc(-c3ccc(C#N)c(N[C@H]4CNC[C@@H]4F)n3)n2nc1C1CC1 [Compound 27a] ?
A) Satisfied

Q) And the next one, COc1cc2ncc(-c3nc(N[C@H]4CNCC[C@@H]4F)ccc3C)n2nc1C1CC1 [Compound 39a] ?
A) Not satisfied

Q) And the next one, COc1cc2ncc(-c3nc(N[C@H]4CNC[C@@H]4F)c(F)cc3F)n2nc1C12CC(C1)C2 [Compound 66a] ?
A) Satisfied

Q) And the next one, Oc1cc2ncc(-c3nc(N[C@@H]4CCCNC4)c(F)cc3F)n2nc1C1CC1 [Compound 75a] ?
A) Satisfied

Q) And the next one, COc1cc2ncc(-c3cc(C)cc(N[C@H]4CNC[C@@H]4F)n3)n2nc1C1CC1 [Compound 50a] ?
A) Not satisfied

Q) And the next one, COc1ccc(N[C@@H]2CCCNC2)nc1-c1cnc2cc(OC)c(C3CC3)nn12 [Compound 32a] ?
A) Not satisfied

Q) And the next one, COc1cc2ncc(-c3nc(N[C@@H]4CCCNC4)c(F)cc3F)n2nc1N1CCCS1(=O)=O [Compound 68a] ?
A) Satisfied

Q) And the next one, COc1cc2ncc(-c3ccc(F)c(N[C@@H]4CCCNC4)n3)n2nc1C1CC1 [Compound 49a] ?
A) Satisfied

Q) And the next one, COc1cc2ncc(-c3cc(-c4ccccc4)cc(N[C@H]4CNC[C@@H]4F)n3)n2nc1C1CC1 [Compound 54a] ?
A) Not satisfied

Q) And the next one, COc1cc2ncc(-c3cc(C4CC4)cc(N[C@H]4CNCC[C@@H]4F)n3)n2nc1C1CC1 [Compound 56a] ?
A) Not satisfied

Q) And the next one, COc1cc2ncc(-c3cc(-c4ccccc4)cc(N[C@H]4CNCC[C@@H]4F)n3)n2nc1C1CC1 [Compound 53a] ?
A) Not satisfied
